B1: CCDC6 (parent)
chain: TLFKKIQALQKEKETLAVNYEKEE

variants of: B1; test: protein stability index of a GFP-peptide fusion (GPS, HEK-293T) (PSI 1-6); higher = more stable; details: c terminus: a fixed tail appended;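 further: lentivirally expressed fusions sorted by FACS into six bins by GFP to DsRed ratio, PSI derived from sequencing read proportions per bin multiplied by bin number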
Label fulfilled when protein stability index is at or above 3; anything below gets not fulfilled.

Prompt line: Tell me whether protein stability index is at least 3 here: Q7S
Response line: fulfilled

Prompt line: Try the variant E21D
Response line: fulfilled

Prompt line: Try the variant E12C
Response line: not fulfilled

Prompt line: Try the variant K22E
Response line: fulfilled

Prompt line: Try the variant T1C
Response line: fulfilled

Prompt line: Try the variant K22P
Response line: fulfilled

Prompt line: Try the variant K11Y
Response line: not fulfilled
